- Test system: E34 (patient-derived glioblastoma stem cells of proneural subtype)
- protocol.notes: phenotypic distance (Euclidean, principal components) from DMSO controls (arbitrary units); higher = stronger morphological change
- run.conditions: 12.3 nM; exposure time: 72 h
Where a name gives a salt, the structure may show the parent alone.
measure: phenotypic distance

molecule	value.reported
CC(=O)O[C@@]12CO[C@@H]1C[C@H](O)[C@@]1(C)C(=O)[C@H](O)C3=C(C)[C@@H](OC(=O)[C@H](O)[C@@H](NC(=O)OC(C)(C)C)c4ccccc4)C[C@@](O)([C@@H](OC(=O)c4ccccc4)[C@H]21)C3(C)C [Docetaxel]	3.76
COc1cc(OC)c(C(=O)CCCN2CCCC2)c(OC)c1 [Buflomedil hydrochloride]	0.727
CC(C)(Oc1ccc(C2CC2(Cl)Cl)cc1)C(=O)O (configuration not stated) [Ciprofibrate]	0.753
Cc1ncc(CO)c(CO)c1O [Pyridoxine hydrochloride]	0.917
CN1CCC(NC(=O)c2cc(-c3c(O)cc(O)cc3Oc3ccc([N+](=O)[O-])cc3)on2)CC1 [NMS-E973]	0.675
CC[n+]1c(/C=C/C=C2/N(C)c3ccccc3C2(C)C)sc2ccccc21	1.65
C/C(=C\c1csc(C)n1)[C@@H]1C[C@@H]2O[C@]2(C)CCC[C@H](C)[C@H](O)[C@@H](C)C(=O)C(C)(C)[C@@H](O)CC(=O)N1 [Ixabepilone]	2.42

---

- Test system: E34
- protocol.notes: surviving fraction (nuclei count normalised to DMSO); higher = more cells surviving (less toxic)
- run.conditions: 12.3 nM; exposure time: 72 h
Where a name gives a salt, the structure may show the parent alone.

compound	target.system	surviving fraction
Cc1ccc(NC(=O)c2ccc3c(c2)OCCO3)cc1NC(=O)c1ccc2nc(OCCN3CCCC3)ccc2c1	E34	0.436
COc1cccc2c1C(=O)c1c(O)c3c(c(O)c1C2=O)C[C@@](O)(C(=O)CO)C[C@@H]3O[C@H]1C[C@H](N)[C@H](O[C@@H]2CCCCO2)[C@H](C)O1	E34	0.559
CC(C)(C)C1CCN(C(=O)n2ncc(C(O)(c3ccccc3)c3ccccc3)n2)CC1	E34	0.941
COc1cc(OC)c(C(=O)CCCN2CCCC2)c(OC)c1 [Buflomedil hydrochloride]	E34	1.03
CN1[C@@H]2CC[C@H]1CC(OC(=O)c1c[nH]c3ccccc13)C2 (stereo not given in full) [3-Tropanyl-indole-3-carboxylate hydrochloride]	E34	0.963
CSc1ccc2c(c1)N(CCC1CCCCN1C)c1ccccc1S2 (stereo not given) [Thioridazine hydrochloride]	E34	0.901
COc1ccc(C(=O)CC(=O)c2ccc(C(C)(C)C)cc2)cc1	E34	0.923
COc1cc(/C=C/C(=O)N2CCC=CC2=O)cc(OC)c1OC	E34	0.984
COc1cc2c(c(OC)c1OC)-c1ccc(OC)c(=O)cc1[C@@H](NC(C)=O)CC2	E34	0.368
Cc1cc(Nc2cc(N3CCN(C)CC3)nc(Sc3ccc(NC(=O)C4CC4)cc3)n2)n[nH]1	E34	0.878
COC(=O)C1=C(C)NC(C)=C(C(=O)OCC(C)C)C1c1ccccc1[N+](=O)[O-] (stereo not given)	E34	0.965
CC(=O)[C@]1(O)Cc2c(O)c3c(c(O)c2[C@@H](O[C@H]2C[C@H](N)[C@H](O)[C@H](C)O2)C1)C(=O)c1ccccc1C3=O	E34	0.511
COc1cc([C@@H]2c3cc4c(cc3[C@H](O)[C@H]3COC(=O)[C@H]23)OCO4)cc(OC)c1OC	E34	0.378
CCCCCCCCCCCCCC(=O)O[C@@H]1[C@@H](C)[C@@]2(O)[C@@H](C=C(CO)C[C@]3(O)C(=O)C(C)=C[C@@H]23)[C@@H]2C(C)(C)[C@]12OC(C)=O [Phorbol 12-myristate 13-acetate]	E34	0.516
COc1cc2c(NC3CCN(C(C)C)CC3)nc(C3CCCCC3)nc2cc1OCCCN1CCCC1	E34	1.1

---

- System: E31 (patient-derived glioblastoma stem cells of proneural subtype)
- protocol.notes: surviving fraction (nuclei count normalised to DMSO); higher = more cells surviving (less toxic)
- run.conditions: 12.3 nM; exposure time: 72 h
Structures can show the parent of a compound that is named as a salt.
Label YES when surviving fraction is at or above 0.8; anything below gets NO.

compound	class.label
C=CC(=O)Nc1cccc(Oc2nc(Nc3ccc(N4CCN(C)CC4)cc3)nc3ccsc23)c1 [Olmutinib]	YES
CC(C)C[C@H](NC(=O)CNC(=O)c1cc(Cl)ccc1Cl)B1OC(=O)C(CC(=O)O)(CC(=O)O)O1 [MLN9708]	NO
Cc1[nH]nc(C(F)(F)F)c1Cc1sc2c(c1C(=O)N1C[C@](C)(O)CO1)c(=O)n(C)c(=O)n2C(C)C [AZD3965]	YES
Cc1ccc(/C=N/NC(=O)c2n[nH]c3c2CCCC3)cc1 [Suprafenacine]	YES
CN1C(=O)CC(c2ccccc2)C1=O (stereo not drawn) [Phensuximide]	YES
N=C(NCCCCCCNC(=N)NC(=N)Nc1ccc(Cl)cc1)NC(=N)Nc1ccc(Cl)cc1 [Chlorhexidine]	YES
CC[C@@]1(O)C(=O)OCc2c1cc1n(c2=O)Cc2cc3c(CN(C)C)c(O)ccc3nc2-1 [Topotecan]	NO
CC(C)NCC(O)c1ccc(O)c(O)c1 (stereo not drawn) [Isoproterenol hydrochloride]	YES

---

- Test system: E28 (patient-derived glioblastoma stem cells of classical subtype)
- protocol.notes: phenotypic distance (Euclidean, principal components) from DMSO controls (arbitrary units); higher = stronger morphological change
- run.conditions: 12.34567901 nM; exposure time: 72 h

compound	target.system	phenotypic distance
C/C=C(\C)C(=O)N[C@@H](c1ccccc1)[C@@H](O)C(=O)O[C@H]1C[C@@]2(O)[C@@H](OC(=O)c3ccccc3)[C@@H]3[C@]4(OC(C)=O)CO[C@@H]4C[C@H](O)[C@@]3(C)C(=O)[C@H](OC(C)=O)C(=C1C)C2(C)C	E28	3.3
O=C(O)c1ccc(-c2c[nH]c3ncc(-c4ccccc4)cc23)cc1C1CCCC1	E28	0.785
OCCN1C[C@H](O)[C@@H](O)[C@H](O)[C@H]1CO	E28	0.943
CC(C)(C)CC(C)(C)c1ccc(OCCOCC[N+](C)(C)Cc2ccccc2)cc1 [Benzethonium chloride]	E28	0.685

---

- Tested on: E34
- protocol.notes: surviving fraction (nuclei count normalised to DMSO); higher = more cells surviving (less toxic)
- run.conditions: 1000 nM; exposure time: 72 h
Where a name gives a salt, the structure may show the parent alone.
// surviving fraction lookup, one value per entry

compound	surviving fraction
CC(C)(C)C1CCN(C(=O)n2ncc(C(O)(c3ccccc3)c3ccccc3)n2)CC1	0.965
CC(=O)O[C@@]12CO[C@@H]1C[C@H](O)[C@@]1(C)C(=O)[C@H](O)C3=C(C)[C@@H](OC(=O)[C@H](O)[C@@H](NC(=O)OC(C)(C)C)c4ccccc4)C[C@@](O)([C@@H](OC(=O)c4ccccc4)[C@H]21)C3(C)C	0.423
COc1cc([C@@H]2c3cc4c(cc3[C@H](O)[C@H]3COC(=O)[C@H]23)OCO4)cc(OC)c1OC	0.329
O=C1CCc2cc(OCCCCc3nnnn3C3CCCCC3)ccc2N1	1.04
CCc1c2c(nc3ccc(OC(=O)N4CCC(N5CCCCC5)CC4)cc13)-c1cc3c(c(=O)n1C2)COC(=O)[C@]3(O)CC	0.675
C=C[C@H]1CN2CC[C@H]1C[C@@H]2[C@@H](O)c1ccnc2ccc(OC)cc12 [Quinidine hydrochloride monohydrate]	0.91

---

# maps each entry to its surviving fraction
- Tested on: FT3469 (normal neural stem cell line)
- protocol.notes: surviving fraction (nuclei count normalised to DMSO); higher = more cells surviving (less toxic)
- run.conditions: 37 nM; exposure time: 72 h
Structures can show the parent of a compound that is named as a salt.

compound	target.system	surviving fraction
COc1cc(N)c(Cl)cc1C(=O)NC1CCN(CCCOc2ccc(F)cc2)CC1OC (centres undefined) [Cisapride]	FT3469	0.992
Cc1cc(C(C)(C)CC(C)(C)C)ccc1OCCOCC[N+](C)(C)Cc1ccccc1 [Methyl benzethonium chloride]	FT3469	1.23
C[C@H](Cc1cc2c(c(C(N)=O)c1)N(CCCO)CC2)NCCOc1ccccc1OCC(F)(F)F	FT3469	1.05
N=C(N)c1ccc(-c2ccc(-c3ccc(C(=N)N)cc3)o2)cc1 [Furamidine dihydrochloride]	FT3469	0.856

---

- Tested on: E34
- protocol.notes: phenotypic distance (Euclidean, principal components) from DMSO controls (arbitrary units); higher = stronger morphological change
- run.conditions: 111.1 nM; exposure time: 72 h
Structures can show the parent of a compound that is named as a salt.
measure: phenotypic distance

compound	measure	value.reported
O=C(CCBr)N1CCN(C(=O)CCBr)CC1 [Pipobroman]	phenotypic distance	0.698
CN(C)CCN(Cc1ccc(Cl)cc1)c1ccccn1 [Chloropyramine hydrochloride]	phenotypic distance	2.53
CC(C)CC(=O)N[C@H](C(=O)N[C@H](C(=O)N[C@@H](CC(C)C)[C@@H](O)CC(=O)N[C@@H](C)C(=O)N[C@@H](CC(C)C)[C@@H](O)CC(=O)O)C(C)C)C(C)C [Pepstatin A]	phenotypic distance	1.47
O=C(/C=C\n1cnc(-c2cc(C(F)(F)F)cc(C(F)(F)F)c2)n1)NNc1cnccn1 [Selinexor]	phenotypic distance	1.64
CC(=O)O[C@H]1C[C@H](O[C@H]2[C@@H](O)C[C@H](O[C@H]3[C@@H](O)C[C@H](O[C@H]4CC[C@@]5(C)[C@H](CC[C@@H]6[C@@H]5C[C@@H](O)[C@]5(C)[C@@H](C7=CC(=O)OC7)CC[C@]65O)C4)O[C@@H]3C)O[C@@H]2C)O[C@H](C)[C@H]1O[C@@H]1O[C@H](CO)[C@@H](O)[C@H](O)[C@H]1O [Lanatoside C]	phenotypic distance	4.28
CN1C(=O)[C@@]23C[C@]4([C@]56C[C@@]78SS[C@@](CO)(C(=O)N7[C@H]5Nc5ccccc56)N(C)C8=O)c5ccccc5N[C@@H]4N2C(=O)[C@]1(CO)SS3 [Chaetocin]	phenotypic distance	7.13
c1ccc2c(c1)[I+]c1ccccc1-2 [Diphenyleneiodonium chloride]	phenotypic distance	2.16
Nc1ncnc2c1c(-c1ccc(Oc3ccccc3)cc1)cn2C1CCCC1	phenotypic distance	0.841
CC(C)C[C@H]1C(=O)N2CCC[C@H]2[C@]2(O)O[C@](NC(=O)[C@@H]3C=C4c5cccc6[nH]c(Br)c(c56)C[C@H]4N(C)C3)(C(C)C)C(=O)N12 [Bromocryptine mesylate]	phenotypic distance	0.843
CC[C@H]1CN2CCc3cc(OC)c(OC)cc3[C@@H]2C[C@@H]1C[C@H]1NCCc2cc(OC)c(OC)cc21 [Emetine dihydrochloride hydrate]	phenotypic distance	2.93
NCc1ccccc1CC(=O)N[C@@H]1C(=O)N2C(C(=O)O)=C(CSc3nnnn3CC(=O)O)CS[C@H]12 [Ceforanide]	phenotypic distance	0.834
CC(C)C[C@H](NC(=O)CNC(=O)c1cc(Cl)ccc1Cl)B1OC(=O)C(CC(=O)O)(CC(=O)O)O1 [MLN9708]	phenotypic distance	10.9
C=C(C)[C@H]1Cc2c(ccc3c2O[C@@H]2COc4cc(OC)c(OC)cc4[C@@H]2C3=O)O1 [Rotenone]	phenotypic distance	0.699
Cc1ccc(S(=O)(=O)/C=C/C#N)cc1 [Bay 11-7082]	phenotypic distance	0.813

These data points were gathered from the supplement of paper PMC13207355.
